biological target: Human recombinant PDE2A (hPDE2A) (Homo sapiens, UniProt O00408); construct: His tag (inferred from metal chelate purification); made in house; host or cells: Sf9 insect cells (baculovirus); assay: In vitro assay PDE2A (SPA, 3H-cGMP hydrolysis); type: biochemical; settings: human recombinant PDE2A, 10 μM cGMP substrate
Sequence (O00408 whole entry): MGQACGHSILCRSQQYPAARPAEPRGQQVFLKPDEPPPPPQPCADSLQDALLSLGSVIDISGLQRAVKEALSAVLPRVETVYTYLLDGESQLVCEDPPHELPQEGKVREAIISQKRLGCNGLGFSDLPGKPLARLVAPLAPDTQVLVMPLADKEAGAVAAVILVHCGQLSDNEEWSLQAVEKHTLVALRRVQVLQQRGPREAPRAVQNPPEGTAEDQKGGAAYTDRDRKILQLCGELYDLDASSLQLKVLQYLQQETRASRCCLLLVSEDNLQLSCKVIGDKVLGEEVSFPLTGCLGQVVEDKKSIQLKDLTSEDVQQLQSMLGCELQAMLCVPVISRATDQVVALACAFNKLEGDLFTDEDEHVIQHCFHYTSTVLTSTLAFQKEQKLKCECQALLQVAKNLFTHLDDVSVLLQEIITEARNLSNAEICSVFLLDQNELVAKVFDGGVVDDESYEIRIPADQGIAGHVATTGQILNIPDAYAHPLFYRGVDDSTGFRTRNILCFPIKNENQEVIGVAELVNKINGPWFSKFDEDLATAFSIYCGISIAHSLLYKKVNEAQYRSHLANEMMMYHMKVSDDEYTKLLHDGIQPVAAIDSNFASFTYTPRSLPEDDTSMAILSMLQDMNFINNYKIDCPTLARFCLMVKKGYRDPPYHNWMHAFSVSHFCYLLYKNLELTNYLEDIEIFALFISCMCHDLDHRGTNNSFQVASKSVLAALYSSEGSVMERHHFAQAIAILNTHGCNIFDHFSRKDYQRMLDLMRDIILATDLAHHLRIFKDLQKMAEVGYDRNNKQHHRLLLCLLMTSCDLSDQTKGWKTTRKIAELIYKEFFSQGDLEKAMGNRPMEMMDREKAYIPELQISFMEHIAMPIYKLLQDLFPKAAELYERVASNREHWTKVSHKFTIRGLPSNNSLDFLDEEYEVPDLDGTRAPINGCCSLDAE
MEASURED ATTRIBUTE: hPDE2A pIC50

COMPOUND | hPDE2A pIC50
Cc1cc(C(=O)N2CC[C@H](C)[C@@H](c3cc(C)nc4ncnn34)C2)cc(C)n1 | 5.96
O=C(c1ccc2ncsc2c1)N1[C@H]2CC[C@@H]1[C@H](c1cc(C(F)F)nc3ncnn13)CC2 [Compound 25b] | 5.96
Cc1cc(C(=O)N2CC[C@@H](C)[C@](F)(c3cc(C(F)F)nc4ncnn34)C2)cc(C2CC2)n1 [Compound 24b] | 8.19
Cc1cc(C(=O)N2CC[C@H](C)[C@@H](c3cc(C#N)nc4ncnn34)C2)cc(C)n1 [Compound 26b] | 8.17

====

target: Human recombinant PDE3A (hPDE3A) (Homo sapiens, UniProt Q14432); construct: purchased Scottish Biomedical; host or cells: Sf9 insect cells; test: In vitro assay PDE3A (SPA, 3H-cAMP hydrolysis); type: biochemical; details: read-out: hPDE3B Emax; read-out: Emax;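 also: the method names PDE3A and the table heading PDE3B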
Sequence (Q14432 whole entry): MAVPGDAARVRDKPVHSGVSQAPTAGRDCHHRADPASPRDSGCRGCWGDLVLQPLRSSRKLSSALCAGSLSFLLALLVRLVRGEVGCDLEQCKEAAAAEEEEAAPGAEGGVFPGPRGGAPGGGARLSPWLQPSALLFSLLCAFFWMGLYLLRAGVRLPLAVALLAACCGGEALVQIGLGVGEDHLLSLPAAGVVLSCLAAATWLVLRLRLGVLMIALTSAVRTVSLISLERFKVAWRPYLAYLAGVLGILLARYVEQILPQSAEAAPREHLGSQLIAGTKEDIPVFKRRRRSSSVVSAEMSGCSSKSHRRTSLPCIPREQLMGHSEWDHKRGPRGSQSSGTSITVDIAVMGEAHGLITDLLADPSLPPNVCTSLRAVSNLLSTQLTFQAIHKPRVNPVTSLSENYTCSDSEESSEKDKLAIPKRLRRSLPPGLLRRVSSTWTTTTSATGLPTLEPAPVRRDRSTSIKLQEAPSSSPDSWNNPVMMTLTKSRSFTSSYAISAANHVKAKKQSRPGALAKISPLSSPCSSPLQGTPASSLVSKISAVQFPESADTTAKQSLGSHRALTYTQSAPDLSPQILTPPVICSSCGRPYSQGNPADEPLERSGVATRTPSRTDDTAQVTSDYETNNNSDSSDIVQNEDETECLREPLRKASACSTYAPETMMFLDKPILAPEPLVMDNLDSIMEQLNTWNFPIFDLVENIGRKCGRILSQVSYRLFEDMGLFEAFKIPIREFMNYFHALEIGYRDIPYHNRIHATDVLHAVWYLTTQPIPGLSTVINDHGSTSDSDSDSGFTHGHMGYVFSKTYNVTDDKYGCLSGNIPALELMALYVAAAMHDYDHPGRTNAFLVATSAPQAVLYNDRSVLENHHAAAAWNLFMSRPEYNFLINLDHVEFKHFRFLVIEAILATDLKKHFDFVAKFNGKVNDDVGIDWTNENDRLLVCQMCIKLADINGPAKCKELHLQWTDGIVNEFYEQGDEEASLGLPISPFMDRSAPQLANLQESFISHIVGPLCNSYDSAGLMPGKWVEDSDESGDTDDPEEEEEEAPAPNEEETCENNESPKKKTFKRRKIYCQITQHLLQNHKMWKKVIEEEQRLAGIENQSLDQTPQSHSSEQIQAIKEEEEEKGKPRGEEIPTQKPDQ
MEASURED ATTRIBUTE: Emax (%)

Would you please look over these solved cases?
RECORD SMILES | UNIT TAG | Emax
C[C@@H]1CCN(C(=O)c2ccn(C)n2)C[C@H]1c1cc(C(F)F)nc2ncnn12 | % | 20
O=C(c1ccc2occc2c1)N1[C@H]2CC[C@H](c3cc(C(F)F)nc4ncnn34)[C@@H]1CC2 | % | 69

(1) Cc1cc(C(=O)N2CC[C@@H](C)[C@H](c3cc(C(F)F)nc4ncnn34)C2)on1
(2) C[C@@H]1CCN(C(=O)c2cncnc2)C[C@H]1c1cc(C(F)F)nc2ncnn12
Task item: Which is greater in Emax, the first item 1 or the second item 2 ? Lab note: record the label of whichever item you select.
Reply: 1

(P) C[C@@H]1CCN(C(=O)c2ncc(C#N)cc2Cl)C[C@H]1c1cc(C(F)F)nc2ncnn12
(Q) CCc1cc(C(=O)N2CC[C@@H](C)[C@H](c3cc(C(F)F)nc4ncnn34)C2)cc(C)n1
(R) Cc1cc(C(=O)N2CC[C@@H](C)[C@@](F)(c3cc(C(F)F)nc4ncnn34)C2)cc(C)n1
Task item: Could you please order the items by Emax, going from the lowest number to the highest? Put the labels in the requested order and write them down.
Reply: R, P, Q

(a) C[C@@H]1CCN(C(=O)c2ccc3c(ccn3C)c2)C[C@H]1c1cc(C(F)F)nc2ncnn12
(b) C[C@@H]1CCN(C(=O)c2cccc3c2ncn3C)C[C@H]1c1cc(C(F)F)nc2ncnn12
Task item: // compare measured Emax, left a , right b , return larger Kindly give the label for the entry you pick.
Reply: a
(a: 99%, b: 62%)

(P) C[C@@H]1CCN(C(=O)c2cc3n(n2)CCO3)C[C@H]1c1cc(C(F)F)nc2ncnn12
(Q) Cc1cc([C@@H]2CN(C(=O)c3oc4ccccc4c3C)CC[C@H]2C)n2ncnc2n1
Task item: # returns the entry with the larger Emax; inputs P and Q Reply with the label of the item you choose.
Reply: Q
(Q: 100%, P: 32%)

====

target: Human recombinant PDE3A (hPDE3A) (Homo sapiens, UniProt Q14432); construct: purchased Scottish Biomedical; host or cells: Sf9 insect cells; test: In vitro assay PDE3A (SPA, 3H-cAMP hydrolysis); assay type: biochemical; details: read-out: hPDE3B Emax; read-out: Emax;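 also: the method names PDE3A and the table heading PDE3B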
MEASURED ATTRIBUTE: Emax (%)

These solved cases illustrate the format of a correct answer.
MOLECULE | UNIT TAG | Emax
COc1ncc(C(=O)N2CC[C@@H](C)[C@H](c3cc(C(F)F)nc4ncnn34)C2)cc1C1CC1 [Compound 73] | % | 83
C[C@@H]1CCN(C(=O)c2cc(OC(F)F)cc(C3CC3)c2)C[C@H]1c1cc(C(F)F)nc2ncnn12 [Compound 91] | % | 61

(P) Cc1nccc(C(=O)N2CC[C@@H](C)[C@H](c3cc(C(F)F)nc4ncnn34)C2)c1F [Compound 68]
(Q) Cc1cc(C(=O)N2CC[C@@H](C)[C@H](c3cc(C(F)F)nc4ncnn34)C2)c(C)cn1 [Compound 32]
Task item: Returns the identifier with the smallest measured Emax among P and Q . The response must carry the label of the picked entry.
Reply: Q
(Q: 31%, P: 50%)

====

target: Human recombinant PDE3A (hPDE3A) (Homo sapiens, UniProt Q14432); construct: purchased Scottish Biomedical; host or cells: Sf9 insect cells; assay: In vitro assay PDE3A (SPA, 3H-cAMP hydrolysis); format: biochemical; conditions: read-out: hPDE3B Emax; read-out: Emax;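 also: the method names PDE3A and the table heading PDE3B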
MEASURED ATTRIBUTE: Emax (%)

Here is how some molecules turned out for Emax.
RECORD SMILES | UNIT TAG | DATA VALUE
C[C@@H]1CCN(C(=O)c2cnc3ccccc3c2O)C[C@H]1c1cc(C(F)F)nc2ncnn12 | % | 85
C[C@@H]1CCN(C(=O)c2ccc(C3CC3)c(C3CC3)c2)C[C@H]1c1cc(C(F)F)nc2ncnn12 | % | 100
O=C(c1ccc2ncccc2c1)N1[C@H]2CC[C@H](c3cc(C(F)F)nc4ncnn34)[C@@H]1CC2 | % | 62
Cc1cc([C@@H]2CN(C(=O)c3cc(C)c(F)c(C)c3)CC[C@H]2C)n2ncnc2n1 | % | 97

(a) C[C@@H]1CCN(C(=O)c2c(F)cccc2F)C[C@H]1c1cc(C(F)F)nc2ncnn12
(b) C[C@@H]1CCN(C(=O)c2ccnc(C3CC3)c2F)C[C@H]1c1cc(C(F)F)nc2ncnn12
Task item: Field: lower Emax | Options: a / b Reply with the label of the item you choose.
Reply: a

====

target: Human recombinant PDE10A (hPDE10A) (Homo sapiens, UniProt Q9Y233); construct: His tag (inferred from metal chelate purification); made in house; host or cells: Sf9 insect cells (baculovirus); test: In vitro assay PDE10A, human clone (SPA, 3H-cAMP hydrolysis); format: biochemical; conditions: human clone (h), default; read-out: hPDE10A2 Emax
Sequence (Q9Y233 267-1055): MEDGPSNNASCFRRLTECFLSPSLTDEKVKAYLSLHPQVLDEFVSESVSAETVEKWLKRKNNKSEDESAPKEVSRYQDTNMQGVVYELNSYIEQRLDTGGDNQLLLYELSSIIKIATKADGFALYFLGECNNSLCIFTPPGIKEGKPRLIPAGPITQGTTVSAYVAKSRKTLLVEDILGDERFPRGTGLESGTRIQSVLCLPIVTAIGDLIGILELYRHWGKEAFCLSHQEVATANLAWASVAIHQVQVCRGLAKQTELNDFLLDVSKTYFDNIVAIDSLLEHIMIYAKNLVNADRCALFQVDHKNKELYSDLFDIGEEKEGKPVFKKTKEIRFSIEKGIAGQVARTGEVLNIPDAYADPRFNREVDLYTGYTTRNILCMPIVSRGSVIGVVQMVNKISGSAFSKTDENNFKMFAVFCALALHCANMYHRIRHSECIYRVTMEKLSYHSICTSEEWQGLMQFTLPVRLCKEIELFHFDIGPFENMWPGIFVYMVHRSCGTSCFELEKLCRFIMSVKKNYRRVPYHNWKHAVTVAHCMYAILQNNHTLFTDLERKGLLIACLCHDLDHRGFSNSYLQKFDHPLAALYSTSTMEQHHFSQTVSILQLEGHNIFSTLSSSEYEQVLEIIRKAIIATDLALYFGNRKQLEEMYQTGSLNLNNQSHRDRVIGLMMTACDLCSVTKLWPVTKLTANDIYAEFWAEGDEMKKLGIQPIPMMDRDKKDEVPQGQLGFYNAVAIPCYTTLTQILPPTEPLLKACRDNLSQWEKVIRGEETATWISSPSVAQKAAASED
MEASURED ATTRIBUTE: Emax (%)

COMPOUND | Emax [%]
C[C@@H]1CCN(C(=O)c2cc(-c3ccco3)nn2C)C[C@H]1c1cc(C(F)F)nc2ncnn12 | 98
Cc1nn(C)cc1C(=O)N1CC[C@@H](C)[C@H](c2cc(C(F)F)nc3ncnn23)C1 | 91
C[C@@H]1CCN(C(=O)c2ccncc2Cl)C[C@H]1c1cc(C(F)F)nc2ncnn12 | 67
Cc1cc(C(=O)N2CC[C@@H](C)[C@H](c3cc(C(F)F)nc4ncnn34)C2)cc(C(F)(F)F)n1 | 98
C[C@@H]1CCN(C(=O)c2cccc3ocnc23)C[C@H]1c1cc(C(F)F)nc2ncnn12 | 79
Cc1nc(C(F)(F)F)ccc1C(=O)N1CC[C@@H](C)[C@H](c2cc(C(F)F)nc3ncnn23)C1 | 64

(1) Cc1cc(C(=O)N2CC[C@H](C)[C@@](F)(c3cc(C(F)F)nc4ncnn34)C2)cc(C2CC2)n1 [Compound 24a]
(2) C[C@@H]1CCN(C(=O)c2cc(C(C)(C)C)on2)C[C@H]1c1cc(C(F)F)nc2ncnn12
Task item: # argmax over Emax for candidates 1 and 2 # respond with the chosen item's label
Reply: 2
(2: 90%, 1: 23%)

====

target: Human recombinant PDE2A (hPDE2A) (Homo sapiens, UniProt O00408); construct: His tag (inferred from metal chelate purification); made in house; host or cells: Sf9 insect cells (baculovirus); experiment: In vitro assay PDE2A (SPA, 3H-cGMP hydrolysis); type: biochemical; settings: read-out: hPDE2A Emax
MEASURED ATTRIBUTE: Emax (%)

RECORD SMILES | UNIT TAG | Emax
Cc1c(C(=O)N2CC[C@@H](C)[C@H](c3cc(C(F)F)nc4ncnn34)C2)oc2ccccc12 | % | 100
COc1cc(C(=O)N2CC[C@@H](C)[C@H](c3cc(C(F)F)nc4ncnn34)C2)nc2ccccc12 | % | 100
C[C@@H]1CCN(C(=O)c2ccc3ncc(F)cc3c2)C[C@H]1c1cc(C(F)F)nc2ncnn12 | % | 99
C[C@@H]1CCN(C(=O)c2ccc3nccn3c2)C[C@H]1c1cc(C(F)F)nc2ncnn12 | % | 101
COc1nc(C)c(C(=O)N2CC[C@@H](C)[C@H](c3cc(C(F)F)nc4ncnn34)C2)s1 | % | 98
O=C(c1cc2n(n1)CCO2)N1[C@H]2CC[C@H](c3cc(C(F)F)nc4ncnn34)[C@@H]1CC2 | % | 97
C[C@@H]1CCN(C(=O)c2cn(C)cn2)C[C@H]1c1cc(C(F)F)nc2ncnn12 | % | 99

Data credit: patent US10947242B2
